tested target: T1, Bud14, P27637
T1 sequence (P27637 247-328, looked up): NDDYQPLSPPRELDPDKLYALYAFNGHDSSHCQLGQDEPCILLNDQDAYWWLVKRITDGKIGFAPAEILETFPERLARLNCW
assay info: SPOT array
protocol conditions: median of control spots 956
measurement label: SPOT intensity

Below, 3 binders whose answers are already recorded.
Looking for the measured SPOT intensity of "QTREPNEPPPPSPAM" , can you help? 0

Same lookup for "VNFRRIPTGPDSPPT" , please. 3

Same lookup for "NLDRSKISLPDFDDE" , please. 20

[a] SSAAPPPPPRRATPE
[b] DKKTKPTPPPKPSHL
Between a and b , whose measured SPOT intensity reads higher? Your answer should be the label of the entry you select. b
(b: 1, a: 0)
